Test: Half life in dog at 2 mg/kg, iv administered with 0.4% hydroxypropyl methylcellulose
Format: ADME, organism-based, Canis lupus familiaris
Set-up: dose 2 mg/kg, route intravenous
Settings: in vivo
PROPERTY_MEASURED: half-life (h)
Just the number please, in h, no unit attached.

Prompt line: Sample C=CCNC(=O)C(=O)C(CC1CC1)NC(=O)[C@@H]1[C@@H]2[C@H](CN1C(=O)[C@@H](NC(=O)NC(CN1C(=O)CC(C)(C)CC1=O)C(C)(C)C)C(C)(C)C)C2(C)C (single isomer, unassigned) — what was its half-life?
Response line: 2.7

---

The following compounds are shown together with reported Ki values.
Test: Inhibition of HCV NS3 protease in absence of human serum
Design: species or system Hepacivirus hominis
State the answer as a number, implicitly in nM.

Example entries and their recorded answers appear below.
- CCCCC(NC(=O)[C@@H]1[C@@H]2[C@H](CN1C(=O)[C@@H](NC(=O)NC(CN1C(=O)CC(C)(C)CC1=O)C(C)(C)C)C(C)(C)C)C2(C)C)C(=O)C(=O)NCCC (single isomer, unassigned): 21
- C=CCNC(=O)C(=O)C(CCCC)NC(=O)[C@@H]1[C@@H]2[C@H](CN1C(=O)C(NC(=O)NC(CN1C(=O)CC(C)(C)CC1=O)C(C)(C)C)C1(C)Cc3ccccc3C1)C2(C)C (single isomer, unassigned): 32
- C=CCNC(=O)C(=O)C(CCCC)NC(=O)[C@@H]1[C@@H]2[C@H](CN1C(=O)[C@@H](NC(=O)NC(CN1C(=O)CC(C)(C)CC1=O)C(C)(C)C)C(C)(C)C)C2(C)C (single isomer, unassigned): 4
- CCCCC(NC(=O)[C@@H]1[C@@H]2[C@H](CN1C(=O)[C@@H](NC(=O)N[C@@H](CN1C(=O)CC(C)(C)CC1=O)C(C)(C)C)C(C)(C)C)C2(C)C)C(=O)C(=O)NC1CC1 (stereo not given in full): 5

Next, consider the following compound.
Prompt line: Tell me the measured Ki of C=CCNC(=O)C(=O)C(CCCC)NC(=O)[C@@H]1[C@@H]2[C@H](CN1C(=O)[C@@H](NC(=O)N[C@@H](CN1C(=O)C3CC3C1=O)C(C)(C)C)C(C)(C)C)C2(C)C (stereo not given in full) , please.
Response line: 5

---

Test: Bioavailability in dog at 3 mg/kg, po administered with 0.4% hydroxypropyl methylcellulose
Format: ADME, organism-based, Canis lupus familiaris
Conditions: in vivo
PROPERTY_MEASURED: bioavailability
Please give the number followed by its unit.

Prompt line: Form field: reported bioavailability of C=CCNC(=O)C(=O)C(CC1CC1)NC(=O)[C@@H]1[C@@H]2[C@H](CN1C(=O)[C@@H](NC(=O)NC(CN1C(=O)CC(C)(C)CC1=O)C(C)(C)C)C(C)(C)C)C2(C)C (single isomer, unassigned)
Response line: 35%

---

Test: Bioavailability in monkey at 3 mg/kg, po administered with 0.4% hydroxypropyl methylcellulose
Type: ADME, organism-based, Macaca mulatta
Details: rhesus monkey, in vivo
PROPERTY_MEASURED: bioavailability (%)
Express the result in % but write the number alone.

* CC(C)(C)NC(=O)N[C@H](C(=O)N1C[C@H]2[C@@H]([C@H]1C(=O)NC(CC1CCC1)C(=O)C(N)=O)C2(C)C)C(C)(C)C (some centres not stated) | 4

Here's the next entry for you.
Prompt line: Would you kindly share the measured bioavailability for C=CCNC(=O)C(=O)C(CC1CC1)NC(=O)[C@@H]1[C@@H]2[C@H](CN1C(=O)[C@@H](NC(=O)NC(CN1C(=O)CC(C)(C)CC1=O)C(C)(C)C)C(C)(C)C)C2(C)C (single isomer, unassigned) ?
Response line: 4

---

Assay: AUC in dog at 3 mg/kg, po administered with 0.4% hydroxypropyl methylcellulose
Format: ADME, organism-based, Canis lupus familiaris
Set-up: dose 3 mg/kg, route oral
Conditions: in vivo
PROPERTY_MEASURED: AUC (µM·h)
Write the number in µM·h without appending the unit.

Prompt line: I have this compound here, C=CCNC(=O)C(=O)C(CC1CC1)NC(=O)[C@@H]1[C@@H]2[C@H](CN1C(=O)[C@@H](NC(=O)NC(CN1C(=O)CC(C)(C)CC1=O)C(C)(C)C)C(C)(C)C)C2(C)C (single isomer, unassigned) , and I need its recorded AUC.
Response line: 1.2

---

Below, each entry is listed alongside its reported pKi.
Assay: Inhibition of HCV NS3 protease in absence of human serum
Set-up: species or system Hepacivirus hominis
Remember, pKi is on a log scale: it is -log10 of the molar concentration.

// below: answered compounds
• C=CCNC(=O)C(=O)C(CCCC)NC(=O)[C@@H]1[C@@H]2[C@H](CN1C(=O)C(NC(=O)NC(CN1C(=O)CC(C)(C)CC1=O)C(C)(C)C)C1Cc3ccccc3C1)C2(C)C (single isomer, unassigned) = 8.40
• C=CCNC(=O)C(=O)C(CCCC)NC(=O)[C@@H]1[C@@H]2[C@H](CN1C(=O)[C@@H](NC(=O)N[C@@H](CN1C(=O)CN(C)C1=O)C(C)(C)C)C(C)(C)C)C2(C)C (stereo partly drawn) = 7.72

In the following, a different compound is considered.
Prompt line: So what does the record say about pKi for C=CCNC(=O)C(=O)C(CCCC)NC(=O)[C@@H]1[C@@H]2[C@H](CN1C(=O)[C@@H](NC(=O)NC(CN1C(=O)CCNC1=O)C(C)(C)C)C(C)(C)C)C2(C)C (single isomer, unassigned) ?
Response line: 8.40

---

Test: Bioavailability in rat at 10 mg/kg, po administered with 0.4% hydroxypropyl methylcellulose
Type: ADME, organism-based
Settings: in vivo
PROPERTY_MEASURED: bioavailability (%)
Give just the number in %; leave the unit off.

Prompt line: Param item = C=CCNC(=O)C(=O)C(CC1CC1)NC(=O)[C@@H]1[C@@H]2[C@H](CN1C(=O)[C@@H](NC(=O)NC(CN1C(=O)CC(C)(C)CC1=O)C(C)(C)C)C(C)(C)C)C2(C)C (single isomer, unassigned) ; retrieve measured bioavailability.
Response line: 22

---

Assay: Selectivity for HCV NS3 protease over human neutrophil elastase
# Ratio listing for each entry below

Answered examples (2):
• C=CCNC(=O)C(=O)C(CC1CCC1)NC(=O)[C@@H]1[C@@H]2[C@H](CN1C(=O)[C@@H](NC(=O)N[C@@H](CN1C(=O)CC(C)(C)CC1=O)C(C)(C)C)C(C)(C)C)C2(C)C (stereo partly drawn) = 6400
• C=CCNC(=O)C(=O)C(CCCC)NC(=O)[C@@H]1[C@@H]2[C@H](CN1C(=O)[C@@H](NC(=O)NC(CN1C(=O)CC(C)(CC)CC1=O)C(C)(C)C)C(C)(C)C)C2(C)C (single isomer, unassigned) = 2500

Okay, now this compound:
Prompt line: Suppose we examine the compound C=CCNC(=O)C(=O)C(CCCC)NC(=O)[C@@H]1[C@@H]2[C@H](CN1C(=O)C(NC(=O)NC(CN1C(=O)CC(C)(C)CC1=O)C(C)(C)C)C1(C)CCCCC1)C2(C)C (single isomer, unassigned) ; what Ratio value has been reported?
Response line: 1000

---

Assay: AUC in rat at 10 mg/kg, po administered with 0.4% hydroxypropyl methyl cellulose
Assay type: ADME, organism-based
Set-up: dose 10 mg/kg, route oral
Conditions: in vivo
PROPERTY_MEASURED: AUC (nM·h)
Please reply with the bare figure in nM·h and do not write the unit itself.

Prompt line: Recorded AUC of C=CCNC(=O)C(=O)C(CC1CC1)NC(=O)[C@@H]1[C@@H]2[C@H](CN1C(=O)[C@@H](NC(=O)NC(CN1C(=O)CC(C)(C)CC1=O)C(C)(C)C)C(C)(C)C)C2(C)C (single isomer, unassigned) , please.
Response line: 900

---

Test: Inhibition of HCV NS3 protease in absence of human serum
Set-up: species or system Hepacivirus hominis
PROPERTY_MEASURED: pKi
# pKi is unitless: minus log10 of the molar concentration; print number only

• C=CCNC(=O)C(=O)C(CC1CC1)NC(=O)[C@@H]1[C@@H]2[C@H](CN1C(=O)[C@@H](NC(=O)NC(CN1C(=O)CC(C)(C)CC1=O)C(C)(C)C)C(C)(C)C)C2(C)C (single isomer, unassigned) = 8.40

Prompt line: Item under review: C=CCNC(=O)C(=O)C(CCCC)NC(=O)[C@@H]1[C@@H]2[C@H](CN1C(=O)[C@@H](NC(=O)NC(CN1C(=O)COCC1=O)C(C)(C)C)C(C)(C)C)C2(C)C (single isomer, unassigned) . Reported pKi?
Response line: 8.10

Prompt line: Param item: C=CCNC(=O)C(=O)C(CCC1CC1)NC(=O)[C@@H]1[C@@H]2[C@H](CN1C(=O)[C@@H](NC(=O)NC(CN1C(=O)CC(C)(C)CC1=O)C(C)(C)C)C(C)(C)C)C2(C)C (single isomer, unassigned)
Response line: 8.15

Prompt line: What about C=CCNC(=O)C(=O)C(CCCC)NC(=O)[C@@H]1[C@@H]2[C@H](CN1C(=O)[C@@H](NC(=O)NC(CN1C(=O)C3CCC(C3)C1=O)C(C)(C)C)C(C)(C)C)C2(C)C (single isomer, unassigned) ?
Response line: 8.22
